# RECORDED CONDITIONS: a range is the spread between reports
VALUE TYPE: melting point

• Clc1ccc(Br)c(Cl)c1 = 26 to 27 °C

input: # lookup: melting point of CC(=O)Oc1ccc(OC(C)=O)cc1
output: 121 to 125 °C

input: # lookup: melting point of Nc1ccccc1Oc1ccccc1
output: 45.8 to 47 °C

---

# RECORDED CONDITIONS: a range is the spread between reports
VALUE TYPE: melting point

Examples with answers:
- Oc1ccc2c(c1)[nH]c1ccccc12: 272 °C
- Brc1ccccc1Br: 5 to 7.1 °C
- CN1CCN(C)C1=O: 8 to 8.2 °C

input: # lookup: melting point of CCCCOCCO
output: -79 to -74.8 °C

input: # lookup: melting point of c1ccc(OCC2CO2)cc1 (stereo not given)
output: 3.5 to 4 °C

input: # lookup: melting point of Cc1c2ccccc2cc2ccccc12
output: 78 to 81.5 °C

input: # lookup: melting point of COC(=O)CCCCCCCCCCC(=O)OC
output: 30 to 31.9 °C

input: # lookup: melting point of CCCCCCCC
output: -57 to -56.8 °C

input: # lookup: melting point of C=CCCCC
output: -140 °C

input: # lookup: melting point of Fc1ccccc1I
output: -42 to -41.5 °C

input: # lookup: melting point of OCCc1ccccn1
output: -8 to -7.8 °C

input: # lookup: melting point of CC1CCC(C)(C)C1 (stereo not given)
output: -142 °C
